- Test system: HMG-CoA reductase
- Sequence (P51639 425-887 limits assumed): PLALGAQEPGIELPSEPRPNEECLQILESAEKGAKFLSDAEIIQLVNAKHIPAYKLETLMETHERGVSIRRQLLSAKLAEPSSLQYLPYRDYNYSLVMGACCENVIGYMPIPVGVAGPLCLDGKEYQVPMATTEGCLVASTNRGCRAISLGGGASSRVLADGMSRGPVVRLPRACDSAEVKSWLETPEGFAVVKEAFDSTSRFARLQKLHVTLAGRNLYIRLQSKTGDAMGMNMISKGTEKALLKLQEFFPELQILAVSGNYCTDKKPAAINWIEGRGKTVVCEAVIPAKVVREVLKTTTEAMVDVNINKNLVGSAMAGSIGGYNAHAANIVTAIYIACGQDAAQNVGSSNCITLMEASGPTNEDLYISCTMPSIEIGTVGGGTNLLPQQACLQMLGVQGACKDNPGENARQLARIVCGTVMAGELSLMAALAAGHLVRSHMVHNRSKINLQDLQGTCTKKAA
- Test details: HMG-CoA reductase inhibition assay (in vitro protocol of J. Med. Chem., 28, 347-358)
- Type: biochemical
- Condition set: relative to compactin arbitrarily assigned a value of 100; IC50 compared with that of compactin determined simultaneously; tested as sodium salt of dihydroxy acid form; enzyme solubilized from rat liver microsomes
- Method: The intrinsic HMG-CoA reductase inhibition activity of the claimed compounds is measured in the in vitro protocol published in J. Med. Chem., 28, p. […] Five milliliters of Aquasol-2 (New England Nuclear) was added to each vial, and radioactivity was measured in a Packard Tri Carb Prias scintillation counter. IC50 values were determined by plotting percentage inhibition against test compound concentration and fitting a straight line to the resulting data by using the least-squares method.
Endpoint name: Relative Potency
Numbers only.

Before answering, review these 2 worked examples.
6(R)-[2-[8(S)-(2,2-dimethylbutyryloxy)-2(S)-methyl-6(R)-(1-hydroxyethyl)-1,2,3,4,4a(S),5,6,7,8,8a(S)-decahydronaphthyl-1(S)]ethyl]-4(R)-hydroxy-3,4,5,6-tetrahydro-2H-pyran-2-one [-- -- -- R CHOHCH3 (ISOMER A) 1,1-dimethylpropyl]
111
6(R)-[2-[8(S)-(2,2-dimethylbutyryloxy)-2(S)-methyl-6(S)-(1-hydroxyethyl)-1,2,3,4,4a,(S),5,6,7,8,8a(R)-decahydronaphthyl-1(S)]ethyl]-4(R)-hydroxy-3,4,5,6-tetrahydro-2H-pyran-2-one [-- -- -- S CHOHCH3 (ISOMER A) 1,1-dimethylpropyl]
131

Proceeding to the next substance to report its Relative Potency.
Record 6(R)-[2-[8(S)-(2,2-dimethylbutyryloxy)-2(S)-methyl-6(R)-(1-hydroxyethyl)-1,2,3,4,4a(S),5,6,7,8,8a(S)-decahydronaphthyl-1(S)]ethyl]-4(R)-hydroxy-3,4,5,6-tetrahydro-2H-pyran-2-one [-- -- -- R CHOHCH3 (ISOMER B) 1,1-dimethylpropyl] , field Relative Potency: 104

---

- Tested on: HMG-CoA reductase
- Test details: HMG-CoA reductase inhibition assay (in vitro protocol of J. Med. Chem., 28, 347-358)
- Type: biochemical
- Condition set: relative to compactin arbitrarily assigned a value of 100; IC50 compared with that of compactin determined simultaneously; tested as sodium salt of dihydroxy acid form; enzyme solubilized from rat liver microsomes
Endpoint name: Relative Potency
Give bare numbers.

6(R)-[2-[8(S)-(2,2-Dimethylbutyryloxy)-2(S)-methyl-6(S)-(α-hydroxybenzyl)-1,2,3,4,4a(S),5,6,7,8,8a-(S)-decahydronaphthyl-1(S)]ethyl]-4(R)-hydroxy-3,4,5,6-tetrahydro-2H-pyran-2-one [-- -- -- S CHOHPH 1,1-dimethylpropyl]
220

Proceeding to the next substance to report its Relative Potency.
Relative Potency on HMG-CoA reductase for 6(R)-[2-[8(S)-(2,2-dimethylbutyryloxy)-2(S)-methyl-6(S)-(1-hydroxyethyl)-1,2,3,4,4a,(S),5,6,7,8,8a(R)-decahydronaphthyl-1(S)]ethyl]-4(R)-hydroxy-3,4,5,6-tetrahydro-2H-pyran-2-one [-- -- -- S CHOHCH3 (ISOMER B) 1,1-dimethylpropyl] is 113
